experimentalTarget: elastase (Sus scrofa, UniProt P00772)
Construct: purchased Sigma-Aldrich CAS No. 39445-21-1 (catalogue number not given); host or cells: porcine pancreas
Sequence (P00772 27-266): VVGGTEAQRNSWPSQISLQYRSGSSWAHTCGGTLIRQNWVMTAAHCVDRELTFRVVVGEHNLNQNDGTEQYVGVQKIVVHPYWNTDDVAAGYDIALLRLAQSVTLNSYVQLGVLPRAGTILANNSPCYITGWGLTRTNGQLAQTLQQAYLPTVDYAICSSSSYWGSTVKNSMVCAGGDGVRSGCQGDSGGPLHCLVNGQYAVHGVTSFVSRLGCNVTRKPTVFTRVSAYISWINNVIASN
testProtocol: Elastase inhibition assay
Assay type: biochemical, porcine
measurementConditions: porcine pancreatic elastase, SANA substrate, 410 nm; Table 3 head prints no unit, threshold 100 µg/mL; read-out: ELA (elastase inhibition)
pIC50: −log10 of the molar value.
reportedEndpoint: pIC50

[[record]]
compound = "COc1c(O)c(OC)c2oc(-c3ccccc3)c(OC)c(=O)c2c1O [Compound C-2, 5,7-dihydroxy-3,6,8-trimethoxyflavone]"
reportedendpoint = "pIC50"
result = "< 3.54"

[[record]]
compound = "C/C=C(\\C)C(=O)Oc1c(O)c(OC)c(O)c2c(=O)c(OC)c(-c3ccccc3)oc12"
reportedendpoint = "pIC50"
result = "< 3.62"

[[record]]
compound = "C=C1C2CCC3C4(C)CCCC(C)(C(=O)O)C4CCC3(C2)C1O (stereo not drawn)"
reportedendpoint = "pIC50"
result = "< 3.50"

[[record]]
compound = "C=C1CC23CCC4C(C)(C(=O)O)CCCC4(C)C2CCC1C3 (stereo not drawn)"
reportedendpoint = "pIC50"
result = "< 3.48"

[[record]]
compound = "COc1c(OC)c(O)c2c(=O)c(OC)c(-c3ccccc3)oc2c1OC [Compound C-3, 5-hydroxy-3,6,7,8-tetramethoxyflavone]"
reportedendpoint = "pIC50"
result = "< 3.55"

[[record]]
compound = "COc1cc2oc(-c3ccccc3)c(OC)c(=O)c2c(O)c1OC [Compound C-4, 5-hydroxy-3,6,7-trimethoxyflavone]"
reportedendpoint = "pIC50"
result = "< 3.52"

